The measurements presented in this section are drawn from patent US12297207B2.

system: Ovcar3 (Muc16+) cells; experiment: In vitro cytotoxicity assay (CCK8 viability), Ovcar3 cells; format: cell-based; settings: Table 2, payloads only; read-out: Ovcar3 IC50
Measured IC50 values are reported for all entries that follow.

{"entry smiles": "COc1cc2cc(c1Cl)N(C)C(=O)C[C@H](OC(=O)[C@H](C)N(C)C(=O)c1ccc(N)cc1F)[C@]1(C)O[C@H]1[C@H](C)[C@@H]1C[C@@](O)(NC(=O)O1)[C@H](OC)/C=C/C=C(\\C)C2", "inequality sign": "=", "IC50 / nM": 0.13}
{"entry smiles": "COc1cc(N)ccc1C(=O)N(C)[C@@H](C)C(=O)O[C@H]1CC(=O)N(C)c2cc(cc(OC)c2Cl)C/C(C)=C/C=C/[C@@H](OC)[C@@]2(O)C[C@H](OC(=O)N2)[C@@H](C)[C@@H]2O[C@@]12C", "inequality sign": "=", "IC50 / nM": 0.2}
{"entry smiles": "COc1cc2cc(c1Cl)N(C)C(=O)C[C@H](OC(=O)[C@H](C)N(C)C(=O)c1ccc(N)cc1)[C@]1(C)O[C@H]1[C@H](C)[C@@H]1C[C@@](O)(NC(=O)O1)[C@H](OC)/C=C/C=C(\\C)C2", "inequality sign": "=", "IC50 / nM": 0.09}
{"entry smiles": "COc1cc2cc(c1Cl)N(C)C(=O)C[C@H](OC(=O)[C@H](C)N(C)C(=O)c1ccc(N)cc1C(F)(F)F)[C@]1(C)O[C@H]1[C@H](C)[C@@H]1C[C@@](O)(NC(=O)O1)[C@H](OC)/C=C/C=C(\\C)C2", "inequality sign": "=", "IC50 / nM": 0.04}
{"entry smiles": "COc1cc2cc(c1Cl)N(C)C(=O)C[C@H](OC(=O)[C@H](C)N(C)C(=O)c1cc(F)c(N)cc1Cl)[C@]1(C)O[C@H]1[C@H](C)[C@@H]1C[C@@](O)(NC(=O)O1)[C@H](OC)/C=C/C=C(\\C)C2", "inequality sign": "<", "IC50 / nM": 0.01}
{"entry smiles": "COc1cc2cc(c1Cl)N(C)C(=O)C[C@H](OC(=O)[C@H](C)N(C)C(=O)c1ccc(N)c(C(F)(F)F)c1)[C@]1(C)O[C@H]1[C@H](C)[C@@H]1C[C@@](O)(NC(=O)O1)[C@H](OC)/C=C/C=C(\\C)C2", "inequality sign": "<", "IC50 / nM": 0.01}
